Target: T1, pig-type ligand peptide (1-60) (SEQ ID NO: 31) (Sus scrofa, UniProt Q9TT95)
T1 construct: made in house
T1 sequence (Q9TT95 23-82): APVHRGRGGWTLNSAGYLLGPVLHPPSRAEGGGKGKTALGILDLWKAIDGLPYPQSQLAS
Assay: Competitive EIA of monoclonal antibodies against pig-type ligand peptide
Type: binding
Details: B/B0 in the presence of 100 nM immunogen; HRP-labeled SEQ ID NO: 44
endpoint: Reactivity Pig Ligand (SEQ ID NO: 31)

molecule	endpoint	result
8 (protein, Porcine) MPRGCALLLASLLLASALSATLGLGSPVKEKRGWTLNSAGYLLGPHAIDNHRSFHDKYGLAGKRELEPEDEARPGGFDRLQSEDKAIRTIMEFLAFLHLKEAGALGRLPGLPSAASSEDAGQS	Reactivity Pig Ligand (SEQ ID NO: 31)	− (0.80 ≦ (B/B0))
1 (protein, Rat) MELAPVNLSEGNGSDPEPPAEPRPLFGIGVENFITLVVFGLIFAMGVLGNSLVITVLARSKPGKPRSTTNLFILNLSIADLAYLLFCIPFQATVYALPTWVLGAFICKFIHYFFTVSMLVSIFTLAAMSVDRYVAIVHSRRSSSLRVSRNALLGVGFIWALSIAMASPVAYYQRLFHRDSNQTFCWEHWPNQLHKKAYVVCTFVFGYLLPLLLICFCYAKVLNHLHKKLKNMSKKSEASKKKTAQTVLVVVVVFGISWLPHHVIHLWAEFGAFPLTPASFFFRITAHCLAYSNSSVNPIIYAFLSENFRKAYKQVFKCRVCNESPHGDAKEKNRIDTPPSTNCTHV	Reactivity Pig Ligand (SEQ ID NO: 31)	− (0.80 ≦ (B/B0))
